In this section, each of the compounds is paired with its reported MIC.
test system: Haemophilus influenzae Wy21; assay: Human bacteria MIC, nutrient agar with chocolated horse blood (Table 3); type: cell-based; details: nutrient agar 5% chocolated horse blood, 18 hours 37° C.
Respond with the bare value in µg/mL.

Examples from the recorded data:
MIC of C/C(=C\C(=O)OCc1cc([N+](=O)[O-])cc([N+](=O)[O-])c1C)CC1OCC(CC2OC2C(C)C(C)O)C(O)C1O (stereo not shown) [Example 7, 3,5-dinitro-2-methylbenzyl monate A] , assay on Haemophilus influenzae Wy21, is 1

MIC of C/C(=C\C(=O)OCc1ccc([N+](=O)[O-])cc1[N+](=O)[O-])CC1OCC(CC2OC2C(C)C(C)O)C(O)C1O (stereo not shown) [Example 10, 2,4-dinitrobenzyl monate A] , assay on Haemophilus influenzae Wy21, is 0.5

MIC of C/C(=C\C(=O)OCc1ccc([N+](=O)[O-])c([N+](=O)[O-])c1)CC1OCC(CC2OC2C(C)C(C)O)C(O)C1O (stereo not shown) [Example 9, 3,4-dinitrobenzyl monate A] , assay on Haemophilus influenzae Wy21, is 0.25

***
MIC of C/C(=C\C(=O)OCc1cc([N+](=O)[O-])cc([N+](=O)[O-])c1)CC1OCC(CC2OC2C(C)C(C)O)C(O)C1O (stereo not shown) [Example 6, 3,5-dinitrobenzyl monate A] , assay on Haemophilus influenzae Wy21, is 0.5
